- method_notes: Pharmacokinetics in rats (plasma) after oral administration
- conditions: male, SD, rat, 5 mg/kg
// returns label 0 unless MRT inf is strictly below 3 h, in which case label 1

{"compound": "[2H]C([2H])([2H])NN(C(=O)c1ccc2nc(N)c3cnn(C)c3c2c1)[C@@H]1COCc2nc(C(F)(F)F)ccc21", "category_label": "label 1"}
{"compound": "Cc1cc2nc(N)c3cncn3c2cc1C(=O)N(C)[C@@H]1COCc2c1ccn1c(C(F)(F)F)cnc21 [Example 62-P1]", "category_label": "label 0"}
{"compound": "[2H]C([2H])([2H])NN(C(=O)c1cc2c3c(c(N)nc2cc1F)COC3)C1COCc2c1ccn1c(C(F)(F)F)cnc21 (stereo not shown)", "category_label": "label 0"}

Problem: For the compound [2H]C([2H])([2H])NN(C(=O)c1cc2c3c(c(N)nc2cn1)COC3)C1COCc2c1ccn1c(C(F)(F)F)cnc21 (stereo not shown) , is MRT inf under 3 h?
label 0

Please state whether MRT inf is below 3 h for Nc1nc2cnc(C(=O)N(N)C3COCc4c3ccn3c(C(F)(F)F)cnc43)cc2c2c1COC2 (stereo not shown)
label 0

Does the reported MRT inf of the following compound sit strictly below 3 h? [2H]C([2H])([2H])NN(C(=O)c1cc2c3c(c(N)nc2cc1C)COC3)C1COCc2c1ccn1c(C(F)(F)F)cnc21 (stereo not shown)
label 1

Hello, is MRT inf of the following compound strictly smaller than 3 h? CNN(C(=O)c1cc2c3c(c(N)nc2cn1)COC3)[C@@H]1COCc2nc(C(F)(F)F)ccc21 [Example 286-P1]
label 1

In plain terms, does CNN(C(=O)c1cc2c(cc1F)nc(N)c1cncn12)C1COCc2nc(C(F)(F)F)ccc21 (stereo not shown) come in under 3 h for MRT inf?
label 1

Hi there! Is MRT inf for CNN(C(=O)c1cc2c(cn1)nc(N)c1cnn(C)c12)[C@@H]1COc2cc(S(F)(F)(F)(F)F)ccc21 (single isomer, unassigned) [Example 375-P1] below 3 h, do you know?
label 0

* * *

- method_notes: in vivo
- conditions: rat, po, 5 mg/kg
readout_type: MRT inf (h)
Unit h implied. Number only.

Give reported MRT inf value for CNN(C(=O)c1cc2c3c(c(N)nc2cn1)COC3)C1COc2cc(S(F)(F)(F)(F)F)ccc21 (single isomer, unassigned) [Example 372-P1]
4.8

* * *

- method_notes: in vivo
- conditions: rat, po, 5 mg/kg
readout_type: Cmax

For the molecule CNN(C(=O)c1cc2c3c(c(N)nc2cn1)COC3)C1COc2cc(S(F)(F)(F)(F)F)ccc21 (single isomer, unassigned) [Example 372-P1] , give its reported Cmax.
378 ng/mL

* * *

- method_notes: in vivo
- conditions: rat, po, 5 mg/kg
readout_type: half-life (h)
Write the number in h without appending the unit.

In one line, give reported half-life of the entry CNN(C(=O)c1cc2c3c(c(N)nc2cn1)COC3)C1COc2cc(S(F)(F)(F)(F)F)ccc21 (single isomer, unassigned) [Example 372-P1] .
2.7

* * *

- method_notes: Pharmacokinetics in rats (plasma) after oral administration
- conditions: male, SD, rat, 5 mg/kg
readout_type: Cmax (ng/mL)
Field format: number, assumed ng/mL, no unit text.

Example entries begin here.
{"compound": "[2H]C([2H])([2H])NN(C(=O)c1ccc2nc(N)c3cnn(C)c3c2c1)[C@@H]1COCc2nc(C(F)(F)F)ccc21 [Example 317]", "Cmax (ng/mL)": 240}
{"compound": "Cc1cc2nc(N)c3cncn3c2cc1C(=O)N(C)[C@@H]1COCc2c1ccn1c(C(F)(F)F)cnc21 [Example 62-P1]", "Cmax (ng/mL)": 441}
{"compound": "[2H]C([2H])([2H])NN(C(=O)c1cc2c3c(c(N)nc2cn1)COC3)[C@H]1COCc2c1ccn1c(C(F)(F)F)cnc21 (stereo in doubt) [Example 371-P1]", "Cmax (ng/mL)": 1600}

Query compound follows.
Return Cmax for the following compound: [2H]C([2H])([2H])NN(C(=O)c1cc2c3c(c(N)nc2cn1)COC3)C1COCc2c1ccn1c(C(F)(F)F)cnc21 (stereo not shown) [Example 371]
1050
